Data origin, for the record: PubChem BioAssay AID1463

Test: Counterscreen qHTS for Inhibitors of Tau Fibril Formation, Fluorescence Polarization; note: nearly all actives have a fitted effect of over 55% in size
Conditions: tau K18 P301L (four-repeat tau fragment) Alexa594 fluorescence, heparin fibrillization; series mostly up to 57.7 µM
Among all 280,000 compounds or so, about 2,600 (0.93%) were called active. Inconclusive results (about 8%) are left out. Calls come from the whole dose curve; as a rule, active = well fitted curve in the direction sought with a large enough effect; inconclusive = small, poorly fitted or top-dose-only effect; inactive = flat fitted curve, though single readings scatter. The sample holds actives, similar compounds and a random draw of the others, so the mix is not that of the screen.
Thanks in advance; please answer with one of these: 1 (yes) (active), 0 (no) (inactive)

Exercise: How did this test come out for "COc1cc(NC(=O)Cn2nc(-c3ccc(C)c(C)c3)ccc2=O)cc(OC)c1" ?
Solution: 0 (no)

Exercise: How did this test come out for "COc1cc(OC)cc(C(=O)Nc2ccc3nc(Nc4cccc(C(F)(F)F)c4)cc(C)c3c2)c1" ?
Solution: 1 (yes)

Exercise: How did this test come out for "CCn1c(C)c(C)c2cc(C(=O)NCCc3cc(OC)ccc3OC)ccc21" ?
Solution: 0 (no)

Exercise: How did this test come out for "COc1cc(NC(=O)c2cncc(-c3ccc(C#N)cc3)c2)cc(C(=O)Nc2cccc(C(F)(F)F)c2)c1" ?
Solution: 0 (no)

Exercise: How did this test come out for "COc1ccc(N2CCN(c3ccc([N+](=O)[O-])cc3Cl)CC2)cc1" ?
Solution: 0 (no)

Exercise: How did this test come out for COc1ccc(NC(=O)NC(C)c2c(-n3cccc3)sc(C)c2C)cc1OC (stereo not given) ?
Solution: 1 (yes)

Exercise: How did this test come out for "O=C(Cn1cc(SCc2cccc(Cl)c2)c2ccccc21)N1CCCCC1" ?
Solution: 0 (no)

Exercise: How did this test come out for "CCn1cc(NC(=O)Nc2ccc(OC)c(OC)c2)c(C(N)=O)n1" ?
Solution: 0 (no)

Exercise: How did this test come out for "CCOc1ccc(N(C)S(=O)(=O)c2cc(-c3cnc(C)o3)ccc2OC)cc1" ?
Solution: 0 (no)

Exercise: How did this test come out for "CC(=O)OC1=C(C(C)=O)N(Cc2ccccc2)S(=O)(=O)c2ccccc21" ?
Solution: 0 (no)
